- tgt: T1, HLA-B*07:02 (human)
- T1 construct: Peptide-receptive MHC monomer made by UV cleavage of a UV-sensitive peptide
- test-method-notes: UV-ligand exchange, anti-b2m ELISA; exchange yield grade (+ >10%, ++ >20%, +++ >50, ++++ >75%)
Please respond with reported peptide exchange yield for every item in the list.

Observe how each entry below is paired with its result.
SPMWHVQQL    50 to 75%
TPIAKVSEL    50 to 75%
KPSSKALGTSL    50 to 75%
IPSRLLAIL    50 to 75%
RPAVGHSGL    20 to 50%
APSGTRVVQVL    20 to 50%
FELPTGAGLQL    20 to 50%
GPGTRLSL    20 to 50%

Provide each entry's peptide exchange yield from the list below.
1. SPLRGGSSL
2. SPSPGKDPTL
3. RVPSYTLIL
4. APKLFAVAF
5. LPALPQQLI

-- reply
1: 20 to 50%; 2: 20 to 50%; 3: 50 to 75%; 4: 50 to 75%; 5: 50 to 75%

Record peptide exchange yield for all entries; do not skip any.
1. IPEPSAQQL
2. NPYEGRVEV
3. IPTDKLLVI
4. YPLTGDTRL
5. YPSEVEHMF

-- reply
20 to 50%
20 to 50%
20 to 50%
20 to 50%
20 to 50%

-- ask Report peptide exchange yield, nothing else, for this binder: `APAAVPSAPA`
-- reply 50 to 75%
